# Tested on: HL-60(TB) leukemia
# assay-name: NCI tumour cell line growth inhibition, 48 h
measured-quantity: log10(TGI) (log10 of the value in µM)
# log10 transformed; quantity=TGI; unit=µM

> print(dat)
                                   molecule  measured.quantity  observed.value
1  [N-]=[N+]=Nc1ccc2c(c1)Sc1ccccc1N2CCCCN1CCN(Cc2ccc(C(=O)c3ccc(CSCC(N)C(=O)O)cc3)cc2)CC1 (configuration not stated)         log10(TGI)            1.49
2  O=C(Nc1cccc(-n2cc(-c3ccncc3)c(-c3ccc(O)c(Cl)c3)n2)c1)c1cc(C(F)(F)F)cc(C(F)(F)F)c1         log10(TGI)            1.44
3  Cc1ccc(/C=C/c2c(C(=O)/C=C/c3ccc(Cl)cc3)c(C)nc3ccccc23)cc1         log10(TGI)            0.76
4  O=C(Nc1ccccc1C(F)(F)F)c1ccc(NC2=C(Cl)C(=O)N(Cc3ccccc3)C2=O)cc1         log10(TGI)            1.25
5  CN(C)C=NC1CCC(C(C)(C)C)CC1 (configuration not stated)         log10(TGI)            1.52
6        O=C(/C=C/C(Cl)(Cl)Cl)Nc1ccc(Cl)cc1         log10(TGI)            0.31
7        CCOc1ccc2c(c1)CN(Cc1ccc(Cl)cc1)CO2         log10(TGI)            1.63
8  Cc1cc(C)c2c(=O)n(CC(O)CN3CCN(CCOCCO)CC3)sc2n1 (configuration not stated)         log10(TGI)            1.74

# per-item lookup of log10(TGI); items listed below
1. O=C(N/C(=C\c1ccccc1Cl)c1nc2ccccc2[nH]1)c1ccccc1
2. N#C/C(=C\c1cc(O)ccc1O)C(N)=O

Result string:
[1.85, 1.54]

Values were extracted from PubChem BioAssay (NCI).
